Would you mind telling me the reported relative viability of each entry?
System: NCI-H2126
MEASUREMENT DESCRIPTION: relative viability (nuclei count vs DMSO), 5 days (fraction); higher = more cells survive
CONDITIONS: first compound 0.4 µM
Answers are plain numbers.

Clc1ccc(Nc2nnc(Cc3ccncc3)c3ccccc23)cc1 [Vatalanib] + CS(=O)(=O)CCNCc1ccc(-c2ccc3ncnc(Nc4ccc(OCc5cccc(F)c5)c(Cl)c4)c3c2)o1 [Lapatinib] (partner 2 µM) | 0.773

In the following, a different compound is considered.
query: Recorded relative viability of C[C@@H]1CN(CC(=O)Nc2ccc3c(c2)Cc2cccc(-c4cc(=O)cc(N5CCOCC5)o4)c2S3)C[C@H](C)O1 + CCNC(=O)c1noc(-c2cc(C(C)C)c(O)cc2O)c1-c1ccc(CN2CCOCC2)cc1 [Luminespib] (partner 0.01 µM) , please.
result: 0.863

* * *

Test system: SW 1573
MEASUREMENT DESCRIPTION: relative viability (nuclei count vs DMSO), 5 days (fraction); higher = more cells survive
CONDITIONS: first compound 0.4 µM
OBSERVATION TYPE: relative viability
Give bare numbers.

Consider the worked cases shown below.
C[C@@H]1CN(CC(=O)Nc2ccc3c(c2)Cc2cccc(-c4cc(=O)cc(N5CCOCC5)o4)c2S3)C[C@H](C)O1 + CCNC(=O)c1noc(-c2cc(C(C)C)c(O)cc2O)c1-c1ccc(CN2CCOCC2)cc1 [Luminespib] (partner 0.01 µM) | 0.207
C[C@@H]1CN(CC(=O)Nc2ccc3c(c2)Cc2cccc(-c4cc(=O)cc(N5CCOCC5)o4)c2S3)C[C@H](C)O1 + CC1(C)CCC(c2ccc(Cl)cc2)=C(CN2CCN(c3ccc(C(=O)NS(=O)(=O)c4ccc(N[C@H](CCN5CCOCC5)CSc5ccccc5)c(S(=O)(=O)C(F)(F)F)c4)cc3)CC2)C1 [Navitoclax] (partner 0.5 µM) | 0.846
Clc1ccc(Nc2nnc(Cc3ccncc3)c3ccccc23)cc1 [Vatalanib] + Cc1nc(Nc2ncc(C(=O)Nc3c(C)cccc3Cl)s2)cc(N2CCN(CCO)CC2)n1 [Dasatinib] (partner 0.075 µM) | 0.645

Hi team, please reply with relative viability for each item in this list.
1. Clc1ccc(Nc2nnc(Cc3ccncc3)c3ccccc23)cc1 [Vatalanib] + Cc1cc(Nc2cc(N3CCN(C)CC3)nc(Sc3ccc(NC(=O)C4CC4)cc3)n2)n[nH]1 [Tozasertib] (partner 0.1 µM)
2. Clc1ccc(Nc2nnc(Cc3ccncc3)c3ccccc23)cc1 [Vatalanib] + C[C@]1(O)C[C@@H](c2nc(-c3ccc4ccc(-c5ccccc5)nc4c3)c3c(N)nccn32)C1 [Linsitinib] (partner 1 µM)
3. Clc1ccc(Nc2nnc(Cc3ccncc3)c3ccccc23)cc1 [Vatalanib] + O=C(c1cc(Cc2n[nH]c(=O)c3ccccc23)ccc1F)N1CCN(C(=O)C2CC2)CC1 [Olaparib] (partner 8 µM)
4. C[C@@H]1CN(CC(=O)Nc2ccc3c(c2)Cc2cccc(-c4cc(=O)cc(N5CCOCC5)o4)c2S3)C[C@H](C)O1 + O=C(CCCCCCC(=O)Nc1ccccc1)NO [Vorinostat] (partner 1 µM)
5. COc1cc(N2CCC(C(N)=O)CC2)ccc1Nc1nc(N)c(Cl)c(Nc2ccccc2S(=O)(=O)C(C)C)n1 [HG-5-88-01] + CS(=O)(=O)CCNCc1ccc(-c2ccc3ncnc(Nc4ccc(OCc5cccc(F)c5)c(Cl)c4)c3c2)o1 [Lapatinib] (partner 2 µM)

result:
1: 0.215; 2: 0.781; 3: 0.506; 4: 0.909; 5: 0.989

Hi team, please reply with relative viability for each item in this list.
1. COc1cc(N2CCC(C(N)=O)CC2)ccc1Nc1nc(N)c(Cl)c(Nc2ccccc2S(=O)(=O)C(C)C)n1 [HG-5-88-01] + COc1cc2c(Oc3ccc(NC(=O)C4(C(=O)Nc5ccc(F)cc5)CC4)cc3F)ccnc2cc1OCCCN1CCOCC1 [Foretinib] (partner 0.25 µM)
2. COc1cc(N2CCC(C(N)=O)CC2)ccc1Nc1nc(N)c(Cl)c(Nc2ccccc2S(=O)(=O)C(C)C)n1 [HG-5-88-01] + Nc1nc2[nH]cc(CCc3ccc(C(=O)N[C@@H](CCC(=O)O)C(=O)O)cc3)c2c(=O)[nH]1 [Pemetrexed] (partner 0.2 µM)

result:
[0.942, 0.689]
